# ASSAY_SYSTEM: Induced myeloid leukemia cell differentiation protein Mcl-1 (Homo sapiens) (UniProt Q07820)
# Sequence (Q07820 whole entry, looked up): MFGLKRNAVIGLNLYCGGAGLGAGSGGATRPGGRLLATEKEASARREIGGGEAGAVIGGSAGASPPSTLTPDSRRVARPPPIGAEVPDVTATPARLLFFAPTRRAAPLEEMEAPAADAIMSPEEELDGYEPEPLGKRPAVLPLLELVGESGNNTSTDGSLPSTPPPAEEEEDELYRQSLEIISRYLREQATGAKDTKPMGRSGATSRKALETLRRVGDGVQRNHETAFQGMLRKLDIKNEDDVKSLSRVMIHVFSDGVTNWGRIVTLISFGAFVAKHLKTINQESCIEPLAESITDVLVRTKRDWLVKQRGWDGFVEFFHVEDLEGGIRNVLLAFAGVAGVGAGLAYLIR
# MEASUREMENT_DESCRIPTION: modulators of Bim peptide binding to Mcl-1, dose response, biochemical, bead-based flow cytometry, multiplexed, human (AID 1329)
# CONDITION: Bim peptide-Mcl-1 binding, MCF
Active and inactive are the calls of the source. How the calls were made is not given here.
OBSERVATION_TYPE: percent span

[[record]]
compound = "CCNC(=S)Nc1ccc(OCC)cc1"
assay_value = "inactive"

[[record]]
compound = "COc1ccc(CC(=O)Nc2ccccc2Oc2ccccc2)cc1"
assay_value = "inactive"

[[record]]
compound = "COc1ccc(CCNC(=O)c2ccc3nc(-c4ccco4)c(-c4ccco4)nc3c2)cc1OC"
assay_value = "inactive"

[[record]]
compound = "CCOc1cc(NC(=S)NC)c(OCC)cc1NC(=O)c1ccc(OC)cc1"
assay_value = "inactive"

[[record]]
compound = "O=C(CSc1nnc(-c2ccccc2)c(-c2ccccc2)n1)N1CCc2ccccc21"
assay_value = "inactive"

[[record]]
compound = "COc1ccc(NC(=O)C2=C(C)NC(=O)NC2c2cccc(OC)c2OC)c(OC)c1 (stereo not drawn)"
assay_value = "inactive"

[[record]]
compound = "CCOC(=O)c1nn(-c2ccccc2)c(C#N)c1N"
assay_value = "inactive"

[[record]]
compound = "O=C(/C=C/c1ccc(-c2ccccc2[N+](=O)[O-])o1)c1ccccc1"
assay_value = "inactive"

[[record]]
compound = "CC1CCN(C2(O)C(=O)Nc3ccc(Br)cc32)CC1 (stereo not drawn)"
assay_value = "inactive"

[[record]]
compound = "Cc1cc(/C=C(/C#N)C(=O)Nc2ccc(Cl)cc2)c(C)n1-c1cccnc1"
assay_value = "inactive"

[[record]]
compound = "COc1ccc(COC(=O)NNC(=O)c2ccccc2Cl)cc1"
assay_value = "inactive"

[[record]]
compound = "O=C(Nc1ccccn1)c1cc2ccccc2o1"
assay_value = "inactive"

[[record]]
compound = "COc1ccc(CN(C)CC(=O)NC(C)c2ccccc2)c(OC)c1 (stereo not drawn)"
assay_value = "inactive"

[[record]]
compound = "OCCN1CCN(CCCc2c3c(cc4c2CCC4)CCC3)CC1"
assay_value = "inactive"

[[record]]
compound = "COc1ccc(NS(=O)(=O)c2cc(NC(=O)c3ccc(C)o3)ccc2N2CCCCC2)cc1"
assay_value = "inactive"

[[record]]
compound = "COc1ccccc1NC(=O)CSc1ncn(-c2ccccc2)n1"
assay_value = "inactive"

[[record]]
compound = "COc1ccc2nc(NC(=O)c3ccc(-c4cccc([N+](=O)[O-])c4)o3)sc2c1"
assay_value = "inactive"

[[record]]
compound = "Cc1ccc(C(=O)N/N=C2/NC(=O)CC(C(=O)Nc3ccccc3)S2)cc1 (stereo not drawn)"
assay_value = "inactive"

[[record]]
compound = "O=C(O)C1=C[C@H](C2CC2)C[C@H](OCCCCO)O1"
assay_value = "inactive"

[[record]]
compound = "Cc1ccc(/C=C2/NC(=O)N(Cc3ccccc3)C2=O)o1"
assay_value = "inactive"

[[record]]
compound = "COc1ccc(Cc2c(O)nc(SC)n(C(C)=O)c2=O)cc1"
assay_value = "inactive"

[[record]]
compound = "COc1cc(NC(=S)NCCCO)c(OC)cc1Cl"
assay_value = "inactive"

[[record]]
compound = "O=C(CNC(=O)c1ccco1)NCC(=O)OCc1ccccc1Br"
assay_value = "inactive"


Sourced from PubChem BioAssay AID1329
